Molecular target: Porcine Ventricle myofibrils (left ventricle of Yucatan minipigs) (Sus scrofa, UniProt P79293)
Construct: Myofibrils from porcine cardiac muscle was isolated from the left ventricle of Yucatan minipigs; tissue Exemplar Genetics; host or cells: left ventricle of Yucatan minipigs
Sequence (P79293 whole entry): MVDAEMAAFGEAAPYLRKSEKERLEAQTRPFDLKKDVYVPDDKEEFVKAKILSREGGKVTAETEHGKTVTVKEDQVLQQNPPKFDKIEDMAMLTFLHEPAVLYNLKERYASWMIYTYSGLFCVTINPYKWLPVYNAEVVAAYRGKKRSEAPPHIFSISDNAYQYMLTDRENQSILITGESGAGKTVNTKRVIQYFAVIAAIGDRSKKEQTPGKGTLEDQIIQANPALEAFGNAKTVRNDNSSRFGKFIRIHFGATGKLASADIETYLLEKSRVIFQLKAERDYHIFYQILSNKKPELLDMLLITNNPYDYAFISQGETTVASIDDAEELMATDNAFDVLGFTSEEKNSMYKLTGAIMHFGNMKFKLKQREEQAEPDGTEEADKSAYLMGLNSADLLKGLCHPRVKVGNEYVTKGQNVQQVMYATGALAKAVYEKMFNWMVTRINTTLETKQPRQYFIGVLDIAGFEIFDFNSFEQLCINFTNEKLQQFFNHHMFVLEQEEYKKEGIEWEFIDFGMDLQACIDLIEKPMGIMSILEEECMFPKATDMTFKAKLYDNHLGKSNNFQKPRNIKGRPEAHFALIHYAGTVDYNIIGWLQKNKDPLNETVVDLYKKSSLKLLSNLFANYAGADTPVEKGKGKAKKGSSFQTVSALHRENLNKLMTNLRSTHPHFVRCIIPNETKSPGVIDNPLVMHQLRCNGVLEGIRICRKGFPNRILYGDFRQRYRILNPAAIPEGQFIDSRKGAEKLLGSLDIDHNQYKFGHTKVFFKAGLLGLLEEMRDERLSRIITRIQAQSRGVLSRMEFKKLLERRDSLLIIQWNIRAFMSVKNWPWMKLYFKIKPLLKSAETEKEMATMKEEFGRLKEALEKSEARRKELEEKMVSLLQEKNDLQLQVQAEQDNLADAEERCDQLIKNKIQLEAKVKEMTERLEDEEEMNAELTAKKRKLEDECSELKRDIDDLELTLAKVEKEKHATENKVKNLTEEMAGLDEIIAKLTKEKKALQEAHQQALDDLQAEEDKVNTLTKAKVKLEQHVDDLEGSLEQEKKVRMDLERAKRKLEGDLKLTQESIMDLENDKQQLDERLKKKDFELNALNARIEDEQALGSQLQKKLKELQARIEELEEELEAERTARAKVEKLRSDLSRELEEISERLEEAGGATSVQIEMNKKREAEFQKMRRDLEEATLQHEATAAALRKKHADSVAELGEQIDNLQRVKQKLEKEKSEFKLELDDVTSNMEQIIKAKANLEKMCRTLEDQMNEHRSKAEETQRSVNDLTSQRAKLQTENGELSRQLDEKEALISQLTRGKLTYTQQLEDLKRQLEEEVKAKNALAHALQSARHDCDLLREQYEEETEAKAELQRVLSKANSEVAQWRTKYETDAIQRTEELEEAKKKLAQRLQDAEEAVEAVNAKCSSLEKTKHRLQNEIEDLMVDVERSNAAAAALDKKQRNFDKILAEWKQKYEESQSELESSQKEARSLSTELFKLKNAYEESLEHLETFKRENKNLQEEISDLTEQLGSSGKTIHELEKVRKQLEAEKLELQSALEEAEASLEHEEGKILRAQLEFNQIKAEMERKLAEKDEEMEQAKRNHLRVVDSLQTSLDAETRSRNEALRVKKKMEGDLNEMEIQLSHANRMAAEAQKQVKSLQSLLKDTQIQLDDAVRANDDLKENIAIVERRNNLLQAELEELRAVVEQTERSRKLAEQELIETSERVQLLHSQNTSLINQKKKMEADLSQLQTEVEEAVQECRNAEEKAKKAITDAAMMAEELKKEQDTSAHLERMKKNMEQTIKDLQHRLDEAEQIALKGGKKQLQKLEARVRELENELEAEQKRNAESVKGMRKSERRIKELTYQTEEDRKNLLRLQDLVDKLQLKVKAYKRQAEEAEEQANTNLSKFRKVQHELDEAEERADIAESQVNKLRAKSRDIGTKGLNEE
Experiment: Myofibril ATPase assay (PK/LDH NADH-coupled), ventricle myofibrils
Format: biochemical
Settings: Table 7
hey, just use YES if measured Porcine Ventricle IC25 is less than 1 µM, otherwise NO

Could you please tell me whether Porcine Ventricle IC25 recorded for C[C@H](NC(=O)CN1C(=O)Nc2cccnc2[C@@H]1C)c1ccc(F)cc1F is less than 1 µM?
NO

Does the reported Porcine Ventricle IC25 of the following compound sit strictly below 1 µM? C[C@@H](NC(=O)CN1Cc2cc(Cl)cnc2NC1=O)c1ncc(F)cc1F
NO

# TODO verify Porcine Ventricle IC25 < 1 µM strictly for this compound: C[C@H](NC(=O)CN1Cc2c(ccnc2OCC(F)F)NC1=O)c1ccc(F)cc1F
NO

Report whether reported Porcine Ventricle IC25 is lower than 1 µM (strictly) for COc1ccc2c(n1)C1(CC1)N(CC(=O)N[C@@H](C)c1ccc(F)cc1F)C(=O)N2
YES

Given O=C(CN1Cc2c(ccnc2C(F)(F)F)NC1=O)N[C@@H]1COc2cc(F)cc(F)c21 , is recorded Porcine Ventricle IC25 strictly lower than 1 µM?
NO

In plain terms, does O=C(CN1Cc2c(ccnc2C(F)(F)F)NC1=O)N[C@H]1COc2cc(F)cc(F)c21 come in under 1 µM for Porcine Ventricle IC25?
NO
